target: D(4) dopamine receptor (Homo sapiens, UniProt P21917); assay: In vitro ability of compound to inhibit binding of [3H]spiperone to human Dopamine receptor D4
Sequence (P21917 whole entry): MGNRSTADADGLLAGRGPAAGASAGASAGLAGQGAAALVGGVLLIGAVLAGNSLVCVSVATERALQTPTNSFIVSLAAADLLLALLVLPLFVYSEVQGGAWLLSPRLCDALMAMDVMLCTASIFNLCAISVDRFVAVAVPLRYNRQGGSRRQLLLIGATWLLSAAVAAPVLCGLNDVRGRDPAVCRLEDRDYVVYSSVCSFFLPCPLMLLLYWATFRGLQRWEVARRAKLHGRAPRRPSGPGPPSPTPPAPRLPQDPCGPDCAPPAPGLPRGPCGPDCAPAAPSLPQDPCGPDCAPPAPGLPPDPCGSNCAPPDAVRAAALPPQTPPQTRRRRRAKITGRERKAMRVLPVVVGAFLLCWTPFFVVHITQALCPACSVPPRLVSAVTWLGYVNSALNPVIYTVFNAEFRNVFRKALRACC
The entries below are paired with their reported Ki.
Numeric answer only, unit nM assumed.

>  <Molecule>
COc1cc(C(=O)NC2CC2)c(Cl)cc1OCC1CN(Cc2ccc(Cl)cc2)CCO1 (centres undefined)

>  <Measured Parameter>
Ki

>  <Measurement Units>
nM

>  <Recorded Number>
150

$$$$
>  <Molecule>
COc1ccc(Cl)cc1OCC1CN(Cc2ccccc2)CCO1 (centres undefined)

>  <Measured Parameter>
Ki

>  <Measurement Units>
nM

>  <Recorded Number>
70

$$$$
>  <Molecule>
COc1ccccc1SCC1CN(Cc2ccc(Cl)cc2)CCO1 (centres undefined)

>  <Measured Parameter>
Ki

>  <Measurement Units>
nM

>  <Recorded Number>
61

$$$$

For COc1ccc(N)cc1OCC1CN(Cc2ccc(Cl)cc2)CCO1 (centres undefined) , what is its reported Ki? 100
